Readings of IL-8 level for the listed substances
Tested on: IL-1β, IL-6, IFN-γ, TNF-α, IL-8, MIP-1α, MCP-1, MIP-1β, RANTES
Assay: Cytokine and chemokine assays in cynomolgus monkeys (Example 46)
Assay type: in vivo
Conditions: day-14 (before start of treatment)
Strand notation (5' to 3'): a small letter for the sugar, then the base; units joined by * are phosphorothioate-linked, units joined directly phosphodiester-linked; [ ] holds rarer units or linkages, { } end groups; capitals alone tell only the bases. e = 2'-O-(2-methoxyethyl) (MOE); [5mC] = 5-methylcytosine; d = 2'-deoxy (DNA)

{"substance": "ISIS 416850: MOE gapmer, nucleobases 1275 to 1318 of SEQ ID NO: 1 (Table 8) (antisense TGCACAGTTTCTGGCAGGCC; MOE gapmer, wing and gap sizes not given here)", "IL-8 level, pg/mL": 45}
{"substance": "ISIS 449707: 3-8-3, 4-8-4, 2-10-2, 3-10-3 or 4-10-4 MOE microwalk gapmer (Table 46) (antisense e[5mC]*eA*e[5mC]*eA*dG*dT*dT*dT*d[5mC]*dT*dG*dG*e[5mC]*eA*eG*eG)", "IL-8 level, pg/mL": 106}
{"substance": "ISIS 449711: 3-8-3, 4-8-4, 2-10-2, 3-10-3 or 4-10-4 MOE microwalk gapmer (Table 46) (antisense eA*e[5mC]*dA*dG*dT*dT*dT*d[5mC]*dT*dG*dG*d[5mC]*eA*eG)", "IL-8 level, pg/mL": 156}
{"substance": "ISIS 449708: 3-8-3, 4-8-4, 2-10-2, 3-10-3 or 4-10-4 MOE microwalk gapmer (Table 46) (antisense eA*e[5mC]*eA*dG*dT*dT*dT*d[5mC]*dT*dG*dG*e[5mC]*eA*eG)", "IL-8 level, pg/mL": 184}
{"substance": "ISIS 416858: MOE gapmer, nucleobases 1275 to 1318 of SEQ ID NO: 1 (Table 8) (antisense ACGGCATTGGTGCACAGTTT; MOE gapmer, wing and gap sizes not given here)", "IL-8 level, pg/mL": 224}
{"substance": "ISIS 445522: 5-8-5 or 6-8-6 MOE microwalk gapmer (Table 44) (antisense eG*e[5mC]*eA*e[5mC]*eA*dG*dT*dT*dT*d[5mC]*dT*dG*dG*e[5mC]*eA*eG*eG*e[5mC])", "IL-8 level, pg/mL": 32}
{"substance": "ISIS 449710: 3-8-3, 4-8-4, 2-10-2, 3-10-3 or 4-10-4 MOE microwalk gapmer (Table 46) (antisense e[5mC]*eA*e[5mC]*dA*dG*dT*dT*dT*d[5mC]*dT*dG*dG*d[5mC]*eA*eG*eG)", "IL-8 level, pg/mL": 29}

* * *

Test system: human Factor 11 mRNA
Test: Dose-dependent inhibition of human Factor 11 in HepG2 cells, electroporation 375-12,000 nM (Example 32)
Type: cell-based
Details: electroporation, Factor 11 mRNA expression
Strand notation (5' to 3'): a small letter for the sugar, then the base; units joined by * are phosphorothioate-linked, units joined directly phosphodiester-linked; [ ] holds rarer units or linkages, { } end groups; capitals alone tell only the bases. e = 2'-O-(2-methoxyethyl) (MOE); [5mC] = 5-methylcytosine; d = 2'-deoxy (DNA)
assay endpoint: IC50 (µM)

{"substance": "449710 (antisense e[5mC]*eA*e[5mC]*dA*dG*dT*dT*dT*d[5mC]*dT*dG*dG*d[5mC]*eA*eG*eG) [compound 449710]", "readout number": 1.59}
{"substance": "449708 (antisense eA*e[5mC]*eA*dG*dT*dT*dT*d[5mC]*dT*dG*dG*e[5mC]*eA*eG) [compound 449708]", "readout number": 4.46}
{"substance": "445531 (antisense eG*eG*e[5mC]*eA*eT*dT*dG*dG*dT*dG*d[5mC]*dA*d[5mC]*eA*eG*eT*eT*eT) [compound 445531]", "readout number": 0.44}
{"substance": "416850 (antisense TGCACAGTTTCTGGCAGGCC; 5-10-5 gapmer, further chemistry not given here) [compound 416850]", "readout number": 0.56}
{"substance": "449709 (antisense eG*e[5mC]*eA*e[5mC]*dA*dG*dT*dT*dT*d[5mC]*dT*dG*dG*d[5mC]*eA*eG*eG*e[5mC]) [compound 449709]", "readout number": 0.38}
{"substance": "449707 (antisense e[5mC]*eA*e[5mC]*eA*dG*dT*dT*dT*d[5mC]*dT*dG*dG*e[5mC]*eA*eG*eG) [compound 449707]", "readout number": 1.26}
{"substance": "449711 (antisense eA*e[5mC]*dA*dG*dT*dT*dT*d[5mC]*dT*dG*dG*d[5mC]*eA*eG) [compound 449711]", "readout number": 11}
{"substance": "416858 (antisense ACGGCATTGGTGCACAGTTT; 5-10-5 gapmer, further chemistry not given here) [compound 416858]", "readout number": 0.83}

The values you see were collected from patent US20230263822A1.
